The entries below are paired with their reported IC50 [nM] (TrkA cell based assay).
Biological target: T1, canine beta-NGF (cNGF) (canine, UniProt Q29074 110-229 (pig entry))
T1 chain: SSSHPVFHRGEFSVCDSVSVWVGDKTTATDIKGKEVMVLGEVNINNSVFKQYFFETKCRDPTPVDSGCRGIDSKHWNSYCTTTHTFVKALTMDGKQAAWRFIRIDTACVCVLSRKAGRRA
Test: cell-based or functional assay
Could you give me the number in nM? Just the number is fine.

Examples from the recorded data:
- binder: "H3AQC2301B12L6AL2 (antibody, V domains shown) VH: EVQLVESGGDLARPGGSLKLSCVVSGFTLTQYGINWVRQAPGKGLQWVTVIWATGATDYNSALKSRFTVSRDNAMNTVYLQMNSLRVEDTAVYYCARDGWWYATSWYFDVWGQGTLVTVSS VL: DIVMTQTPLSLSVSPGEPASISCRASQDISNYLNWFRQKPDGTVKLLIYYVTSLHAGVPSRFSGSGSGTDFTLRISRVEADDAGVYYCQQGSTLPRTFGQGT"
  IC50 [nM] (TrkA cell based assay) (nM): 10
- binder: "01B12 Chimera (antibody, V domains shown, Mouse variable domains on canine IgG constant regions; 184 and 160; also called Chim-01B12) VH: QVQLKESGPGLVAPSQSLSITCTVSGFSLTGYGVNWVRQPPGKGLEWLGMIWGDGSTDYNSALKSRLSISKDNSKSQVFLKMNSLQTDDTARYYCARDGYYYGTTWYFDVWGAGTTVTV VL: DIQMTQTTSSLSASLGDRVTISCRASQDISNYLNWYQQKPDGTIKLLIYYTSRLHSGVPSRFSGSGSGTDYSLTISNLEQEDIATYFCQQGSTLPRTFGGGT"
  IC50 [nM] (TrkA cell based assay) (nM): 1.02
- binder: "H3AQC2301B12L2AL1 (antibody, V domains shown, Caninized IgG) VH: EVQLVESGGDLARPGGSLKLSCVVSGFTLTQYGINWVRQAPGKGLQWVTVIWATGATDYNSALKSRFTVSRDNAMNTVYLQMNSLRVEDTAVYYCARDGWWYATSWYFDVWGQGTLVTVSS VL: DIVMTQTPLSLSVSPGEPASISCKASQSINHYLNWFRQKPDGTVKLLIYYTSRLHSGVPSRFSGSGSGTDFTLRISRVEADDAGVYYCQQGSTLPRTFGQGT"
  IC50 [nM] (TrkA cell based assay) (nM): 0.99
- binder: "H3AQC23L6A (antibody, V domains shown) VH: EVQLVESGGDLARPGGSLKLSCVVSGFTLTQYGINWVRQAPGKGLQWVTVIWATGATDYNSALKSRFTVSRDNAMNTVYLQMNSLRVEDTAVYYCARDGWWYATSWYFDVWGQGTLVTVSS VL: DIVMTQTPLSLSVSPGEPASISCKASQDINHYLNWFRQKPDGTVKLLIYYVTSLHAGVPSRFSGSGSGTDFTLRISRVEADDAGVYYCQQGDHFPRTFGQGT"
  IC50 [nM] (TrkA cell based assay) (nM): 16.9
- binder: "H3AQC23L2AL3 (antibody, V domains shown) VH: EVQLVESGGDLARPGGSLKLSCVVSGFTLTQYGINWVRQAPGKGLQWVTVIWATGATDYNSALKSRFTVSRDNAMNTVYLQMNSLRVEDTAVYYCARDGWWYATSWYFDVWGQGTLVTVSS VL: DIVMTQTPLSLSVSPGEPASISCRASQSISNNLNWFRQKPDGTVKLLIYYISSFHSGVPSRFSGSGSGTDFTLRISRVEADDAGVYYCQQGDHFPYTFGQGT"
  IC50 [nM] (TrkA cell based assay) (nM): 2.57

Query: For H3AQC2301B12L1AL1L3 (ZTS-00103182) (antibody, V domains shown, Caninized IgG; 49 as printed runs on into CH1; the VL entry stops at FGQGT; also called ZTS-182; wt 182) VH: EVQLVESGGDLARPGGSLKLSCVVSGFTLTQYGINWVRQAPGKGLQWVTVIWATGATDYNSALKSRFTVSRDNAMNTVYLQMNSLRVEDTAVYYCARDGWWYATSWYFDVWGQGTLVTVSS VL: DIVMTQTPLSLSVSPGEPASISCKASQDINHYLNWFRQKPDGTVKLLIYYTSRLHSGVPSRFSGSGSGTDFTLRISRVEADDAGVYYCQQGDHFPRTFGQGT , write its IC50 [nM] (TrkA cell based assay).
Result: 1.26

Query: Please supply the value of reported IC50 [nM] (TrkA cell based assay) for the item H3AQC2301B12L5AL2 (antibody, V domains shown, Caninized IgG) VH: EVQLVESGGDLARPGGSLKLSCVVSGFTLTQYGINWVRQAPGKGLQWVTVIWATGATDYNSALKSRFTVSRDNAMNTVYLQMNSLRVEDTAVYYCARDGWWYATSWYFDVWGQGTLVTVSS VL: DIVMTQTPLSLSVSPGEPASISCRASQDISNYLNWFRQKPDGTVKLLIYYTSSLHSGVPSRFSGSGSGTDFTLRISRVEADDAGVYYCQQGSTLPRTFGQGT
Result: 9.7

Query: Give the reported value of IC50 [nM] (TrkA cell based assay) for this record: H3A02B4L1AL1 (antibody, V domains shown, Caninized IgG) VH: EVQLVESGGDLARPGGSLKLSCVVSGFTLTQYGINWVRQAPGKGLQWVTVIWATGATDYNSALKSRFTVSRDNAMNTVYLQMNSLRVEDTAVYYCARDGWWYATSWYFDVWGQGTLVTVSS VL: EIVMTQSPASLSLSQEEKVTITCKASQDINHYLNWYQQKPGQAPKLLIYYTSRLHSGVPSRFSGSGSGTDFSFTISSLEPEDVAVYYCQQGNMFPYTFGGGT
Result: 1.56
